assay: Metabolic stability in human liver microsomes assessed as intrinsic clearance; assay type: ADME, Microsome; conditions: read-out: CLH
// values below are reported microsomal CLint
parameter: microsomal CLint (µL/min/mg)

>>> df
                                linenotation  testvalue
 0  COc1ccc([C@@H]2CN(C3CCCC3)C[C@@]2(F)C(=O)N2CC[C@@H](c3ccc(C(F)(F)F)cc3N3CCC(C(=O)O)CC3)C2)cc1         50
 1  COc1ccc([C@@H]2CN(C3CCCC3)C[C@@]2(F)C(=O)N2C[C@H](CO)[C@@H](c3ccc(C(F)(F)F)cc3N3CCC(C(=O)O)CC3)C2)cc1         42
 2  COC[C@H]1CN(C(=O)[C@]2(F)CN(C(C)(C)C)C[C@H]2c2ccc(OC)cc2)C[C@@H]1c1ccc(C(F)(F)F)cc1N1CCC(C(=O)O)CC1         30
 3  CC(C)(CF)N1C[C@@H](C(=O)Nc2nccn2Cc2ccc(C(F)(F)F)cc2N2CCC(C(=O)O)CC2)[C@H](c2ccc(F)cc2F)C1        116
 4  COc1ccc([C@@H]2CN(C)C[C@@]2(F)C(=O)N2CCC(c3ccc(C(F)(F)F)cc3N3CCC(C(=O)O)CC3)CC2)cc1         12
 5  COc1ccc([C@@H]2CN(C(C)(C)C)C[C@@]2(F)C(=O)N2CCC(c3ccc(C(F)(F)F)cc3N3CCC(C(=O)O)CC3)CC2)cc1         32
 6  CC(C)(C)N1C[C@@H](c2ccc(F)cc2F)[C@](F)(C(=O)N2CCC(c3ccc(C(F)(F)F)cc3N3CCC(C(=O)O)CC3)CC2)C1         27
 7  COc1ccc([C@@H]2CN(C3CC3)C[C@@]2(F)C(=O)N2CCC(c3ccc(C(F)(F)F)cc3N3CCC(C(=O)O)CC3)CC2)cc1         23
 8  Cc1ccc([C@@H]2CN(C(C)(C)C)C[C@@]2(F)C(=O)N2CCC(c3ccc(C(F)(F)F)cc3N3CCC(C(=O)O)CC3)CC2)cc1         34
 9  CC(C)(C)N1C[C@@H](C(=O)Nc2nccn2Cc2ccc(C(F)(F)F)cc2N2CCC(C(=O)O)CC2)[C@H](c2ccc(F)cc2F)C1         25
10  CC(C)(C)N1C[C@@H](c2ccc(F)cc2F)[C@](F)(C(=O)Nc2nccn2Cc2ccc(C(F)(F)F)cc2N2CCC(C(=O)O)CC2)C1        198
11  COc1ccc([C@@H]2CN(C3CCCC3)C[C@@]2(F)C(=O)N2CCC(c3ccc(C(F)(F)F)cc3N3CCC(C(=O)O)CC3)CC2)cc1         21
12  COC[C@H]1CN(C(=O)[C@]2(F)CN(C3CCCC3)C[C@H]2c2ccc(OC)cc2)C[C@@H]1c1ccc(C(F)(F)F)cc1N1CCC(C(=O)O)CC1         42
13  COc1ccc([C@@H]2CN(C3CCCCC3)C[C@@]2(F)C(=O)N2CCC(c3ccc(C(F)(F)F)cc3N3CCC(C(=O)O)CC3)CC2)cc1         28
14  COc1ccc([C@@H]2CN(CCO)C[C@@]2(F)C(=O)N2CCC(c3ccc(C(F)(F)F)cc3N3CCC(C(=O)O)CC3)CC2)cc1         17
15  CC(C)(C)N1C[C@@H](c2ccc(F)cc2)[C@](F)(C(=O)N2CCC(c3ccc(C(F)(F)F)cc3N3CCC(C(=O)O)CC3)CC2)C1          4
